# testedSystem: UGT1A9 (Homo sapiens, UniProt O60656)
# Sequence (O60656 26-530): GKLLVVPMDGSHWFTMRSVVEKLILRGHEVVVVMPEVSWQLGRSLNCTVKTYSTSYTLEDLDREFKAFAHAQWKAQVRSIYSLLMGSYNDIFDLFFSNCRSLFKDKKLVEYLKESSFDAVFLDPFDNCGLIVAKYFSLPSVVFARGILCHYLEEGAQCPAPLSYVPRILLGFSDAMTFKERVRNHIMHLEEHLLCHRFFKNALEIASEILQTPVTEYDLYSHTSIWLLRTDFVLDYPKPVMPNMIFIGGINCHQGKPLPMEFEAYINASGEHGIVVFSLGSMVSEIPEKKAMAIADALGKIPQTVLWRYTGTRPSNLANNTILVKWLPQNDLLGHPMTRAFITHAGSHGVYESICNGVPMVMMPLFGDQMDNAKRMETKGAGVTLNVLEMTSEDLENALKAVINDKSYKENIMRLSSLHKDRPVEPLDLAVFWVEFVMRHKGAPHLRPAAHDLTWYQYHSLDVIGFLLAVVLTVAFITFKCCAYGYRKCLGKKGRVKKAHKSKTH
# particulars: substrate inhibition model, propofol glucuronidation, human hepatocytes, TR Only
readoutName: Ki (µM)
# output: bare number, implied unit µM

Specify measured Ki for CC(C)c1cccc(C(C)C)c1O [propofol] . 521

----------
# testedSystem: UniProt:O60656
# particulars: substrate inhibition model, propofol glucuronidation, human hepatocytes treated with UGT2B7 siRNA
readoutName: Ki (µM)
Lab book: enter the figure in µM, no units written.

Please look at this compound and report its Ki: CC(C)c1cccc(C(C)C)c1O 199

----------
# testedSystem: UGT1A9 (Homo sapiens)
# particulars: substrate inhibition model, propofol glucuronidation, human hepatocytes treated with UGT1A9 siRNA
readoutName: Ki (µM)
Expressed in µM, but write only the number.

Give me measured Ki, please, for this compound: CC(C)c1cccc(C(C)C)c1O [propofol] 448

From: paper PMC4059507
